Can you tell me TGI for the items I'm about to list?
- Test system: MCF7 breast
- Assay: NCI tumour cell line growth inhibition, 48 h

Example entries begin here.
# Molecule, TGI
measured = [
    ("CC(CC[C@@]1(O)OC2C[C@H]3[C@@H]4CC[C@H]5CC(OC6OC(CO)C(OC7OC(CO)C(O)C(OC8OCC(O)C(O)C8O)C7OC7OC(CO)C(O)C(O)C7O)C(O)C6O)[C@H](O)CC5(C)[C@H]4CCC3(C)C2[C@@H]1C)COC1OC(CO)C(O)C(O)C1O (some centres not stated)", "> 50 µM"),
    ("Cc1ccc(/S(Cc2ccccc2)=N\\S(=O)(=O)c2ccc(C)cc2)cc1 (configuration not stated)", "> 100 µM"),
    ("Cn1cncc1-c1c(F)cncc1NC(=O)c1c(N)nn2cc(F)cnc12", "56.4 µM"),
    ("CCOC(=O)C#Cc1c(C(=O)OCC)nnn1[C@@H]1O[C@H](CO)[C@H]2OC3(CCCCC3)O[C@H]21", "6.56 µM"),
    ("CC1(C)OC2OC(COC(=O)c3ccc(C#N)cc3)C3OC(C)(C)OC3C2O1 (configuration not stated)", "> 75 µM"),
    ("Cc1ccc(O)c(NC2=C(Cl)C(=O)N(Cc3ccccc3)C2=O)c1", "48.8 µM"),
    ("CC(=O)O[C@H]1C(=O)[C@@]2(C)[C@H]([C@H](OC(=O)c3ccccc3)[C@]3(O)C[C@H](OC(=O)[C@H](O)[C@@H](NC(=O)c4ccc(N(C)C)cc4)c4ccccc4)C(C)=C1C3(C)C)[C@]1(OC(C)=O)CO[C@@H]1C[C@@H]2O", "> 50 µM"),
    ("OC(COc1ccccc1)CN1CCCCC1 (configuration not stated)", "> 100 µM"),
    ("Cc1cc2nnc(C(N)=O)c(N)c2cc1C", "> 100 µM"),
    ("Nc1c2cc3ccc2nc2ccc(cc12)OCCOCCOCCOCCOCCOCCO3", "> 10 µM"),
]

// each molecule listed below needs its TGI
1. O=C(Nc1ccc2c(c1)OCCO2)C(=O)c1c[nH]c2ccccc12
2. Cc1nc(Nc2ccc(Cl)c(Cl)c2)sc1C(=O)/C=C/c1ccc2c(c1)OCO2

Solution:
1. > 100 µM
2. > 100 µM

###

- Tested on: MOLT-4 leukemia
- Assay: NCI tumour cell line growth inhibition, 48 h
Can you tell me TGI for the items I'm about to list?

# Molecule, Property measured, Observed value
measured = [
    ("COc1cccc(NC(=O)c2sc3nc4c(cc3c2N)C(O)CCC4)c1 (stereo unspecified)", "TGI", "> 100 µM"),
]

// each molecule listed below needs its TGI
1. C=C(C)C(=O)OC1C[C@H](COC(C)=O)C2CC=C(CO)C2C2OC(=O)C(=C)[C@H]12 (stereo partly specified)
2. CCc1nn2ncccc2c1-c1ccnc(NC2CC2)n1
3. COc1ccc2c(c1)O/C(=C\c1cccc(OCC(=O)Nc3nc(C)c(C)s3)c1)C2=O
4. O=C(Nc1ccc2cc3ccccc3cc2c1)c1cc2c(cc1Cl)Sc1nccn1S2(=O)=O

Solution:
45.7 µM
> 25 µM
> 22.5 µM
> 100 µM

// each molecule listed below needs its TGI
1. C[n+]1cn(-c2nc3ccccc3nc2[N-]S(=O)(=O)c2ccccc2)c2ccccc21
2. C=CC[C@]1(C2=NC(C)(C)CO2)c2ccccc2-c2ccccc2[C@H]1C(C)=O
3. Cc1noc(C)c1-c1cnc2c(-c3ccc(C(=O)O)cc3)cn([C@@H](C)c3ccccn3)c2c1
4. C=C(CN1c2ccccc2Sc2ccccc21)c1ccc(C(=O)Nc2ccccc2N)cc1

Solution:
1. > 100 µM
2. 50 µM
3. > 100 µM
4. > 65.2 µM

// each molecule listed below needs its TGI
1. COc1cc2c3c(c1OC)C(=O)C=C3N(S(=O)(=O)c1ccc(C)cc1)CC2
2. CCOC(=O)C#Cc1c(C(=O)OCC)nnn1[C@@H]1O[C@H](CO)[C@H]2OC3(CCCCC3)O[C@H]21

Solution:
> 100 µM
5.42 µM

###

Can you tell me TGI for the items I'm about to list?
- Tested on: UO-31 renal
- Assay: NCI tumour cell line growth inhibition, 48 h

// each compound listed below needs its TGI
1. O=C(c1ccco1)N(C(=S)N1CCN(c2ccccn2)CC1)c1ccccc1
2. CN1CCCN2CCN(C)CCCN(CC1)CC2
3. COc1ccc(-c2nsc3c2NC(=O)CC3c2cccc(Cl)c2)cc1 (centres undefined)
4. O=C(NC1(C(=O)O)CCCC1)c1ccccc1

Solution:
["> 100 µM", "> 100 µM", "> 100 µM", "> 100 µM"]

###

- Test system: DMS 114 small cell lung
- Assay: NCI tumour cell line growth inhibition, 48 h
Can you tell me TGI for the items I'm about to list?

Example entries begin here.
# Compound, Tested on, TGI
rows = [
    ("C=C(CO)CC(/C=C(\\C)CC/C=C(\\C)CCl)OC(C)=O (stereo not drawn)", "DMS 114 small cell lung", "> 100 µM"),
    ("CCCCCCCCCC(=O)NC(Cc1ccc(O)cc1)C(=O)NCCCNCCCCNCCCNC(=O)[C@@H](N)CCCN=C(N)N (stereo partly drawn)", "DMS 114 small cell lung", "> 100 µM"),
]

Problem: Any idea what its TGI is? The compound is COC(=O)CC(C(C(C)=O)C(=O)OCc1ccccc1)N1C(=O)OC(c2ccccc2)C1c1ccccc1 (stereo not drawn)
Solution: > 100 µM

###

- Tested on: M14 melanoma
- Assay: NCI tumour cell line growth inhibition, 48 h
Property measured: TGI

Example entries begin here.
# Smiles representation, TGI
data = [
    ("Cc1ccccc1N=Nc1c(-c2ccccc2)nn(C(=O)CC(=O)Nc2cccc(Cl)c2)c1-c1ccccc1", "> 31.6 µM"),
    ("CC(=O)O[C@H]1C(=O)[C@@]2(C)[C@H]([C@H](OC(=O)c3ccccc3)[C@]3(O)C[C@H](OC(=O)[C@H](O)[C@@H](NC(=O)c4ccc(N(C)C)cc4)c4ccccc4)C(C)=C1C3(C)C)[C@]1(OC(C)=O)CO[C@@H]1C[C@@H]2O", "> 50 µM"),
    ("COC(=O)/C(=C/c1ccc(OC)cc1)C(C(=O)O)=C1CCCCC1", "> 100 µM"),
]

# evaluate next
Problem: Any idea what its TGI is? The compound is `Cc1cccc(Nc2cc(Cl)nc(SCC(=O)O)n2)c1C`
Solution: > 100 µM

###

Can you tell me TGI for the items I'm about to list?
- System: UACC-62 melanoma
- Assay: NCI tumour cell line growth inhibition, 48 h

Example entries begin here.
# Compound, TGI
rows = [
    ("CC(C)C(=S)N(C)O", "> 61.9 µM"),
    ("CCn1c(=N)sc2nc3ccccc3n2c1=O", "> 100 µM"),
    ("COc1cc(Nc2ncnc(Nc3ccc4c(n3)NC(=O)C(C)(C)O4)n2)cc(OC)c1OC", "> 100 µM"),
    ("CCOC(=O)C1(C(=O)OCC)C=C(c2ccccc2)N(C2OC(COC(C)=O)C(OC(C)=O)C(OC(C)=O)C2OC(C)=O)C1=S (stereo unspecified)", "> 100 µM"),
    ("C[n+]1cn(-c2nc3ccccc3nc2[N-]S(=O)(=O)c2ccccc2)c2ccccc21", "> 100 µM"),
]

Problem: Any idea what its TGI is? The compound is `COc1cc(-c2nccc3cc4c(cc23)OCO4)cc(OC)c1OC`
Solution: > 100 µM

###

- System: LXFL 529 NSCLC
- Assay: NCI tumour cell line growth inhibition, 48 h
Can you tell me TGI for the items I'm about to list?

Example entries begin here.
# Molecule, Tested on, TGI
records = [
    ("COc1cccc2nc3c(C(=O)NCCN(C)C)cccc3nc12", "LXFL 529 NSCLC", "42.4 µM"),
    ("CC(C)C(=S)N(C)O", "LXFL 529 NSCLC", "> 100 µM"),
    ("COc1cc2c(c(OC)c1OC)-c1ccc(SC)c(=O)cc1C(CC(=O)Oc1cccc(F)c1)C2 (configuration not stated)", "LXFL 529 NSCLC", "> 40.8 µM"),
    ("COc1ccc(/C(Cl)=C(\\C=O)c2ccc(Cl)cc2)cc1OC", "LXFL 529 NSCLC", "37.4 µM"),
    ("COC(=O)CC(=O)NCC1=CCC(=O)CC1", "LXFL 529 NSCLC", "> 100 µM"),
    ("CCC(=O)C(C(=O)CC)c1c(OC(=O)c2ccccc2)ccc(O)c1C(=O)OC", "LXFL 529 NSCLC", "> 100 µM"),
    ("COc1cc2c3c(c1OC)C(=O)C=C3N(S(=O)(=O)c1ccc(C)cc1)CC2", "LXFL 529 NSCLC", "> 100 µM"),
    ("C/C(CC(=O)Nc1ccc(NC(=O)C/C(C)=N\\NC(N)=O)cc1)=N/NC(N)=O", "LXFL 529 NSCLC", "> 100 µM"),
    ("CCC(C)(O)c1cn(-c2ccc(S(=O)(=O)O)cc2)nn1 (configuration not stated)", "LXFL 529 NSCLC", "> 100 µM"),
    ("COC(=O)/C(=C/c1ccc(OC)cc1)C(C(=O)O)=C1CCCCC1", "LXFL 529 NSCLC", "> 100 µM"),
]

// each molecule listed below needs its TGI
1. O/N=C\C(=Nc1ccc(Cc2ccc(N=C(/C=N\O)NO)cc2)cc1)NO
2. C=CCn1c(=N)/c(=C(\N)O)s/c1=C1/SC(=S)N(c2ccc(C)cc2)C1=O

Solution:
["> 100 µM", "> 100 µM"]
